// data source = ChEMBL document CHEMBL3421610

# Test system: Plasmodium falciparum
# assay.remarks: Antimalarial activity against chloroquine-resistant Plasmodium falciparum C235 assessed as growth inhibition after 18 hrs by [3H]-hypoxanthine uptake assay
# Assay type: functional, organism-based
Label scheme for IC50: range A: < 6 nM; range B: ≥ 6 nM and < 200 nM; range C: ≥ 200 nM

Field: example entries. Status: answers known.
smiles.record	label.class
Clc1ccc2c(/N=C(\NCCCN3CCCCC3)c3ccccc3)ccnc2c1	range A
CCN(CC)CCC/N=C(\c1cccnc1)N(CCCN(CC)CC)c1ccnc2cc(Cl)ccc12	range C
COc1ccc2nc3cc(Cl)ccc3c(N/C(=N/CCCN(C)C)c3ccccc3)c2n1	range A
CCN(CC)CCN/C(C)=N\c1ccnc2cc(Cl)ccc12	range B
CCN(CC)CCCN(CCCN(CC)CC)/C(C)=N\c1ccnc2cc(Cl)ccc12	range B

Proceed to the following item.
Which IC50 category applies to C/C(=N/c1ccnc2cc(Cl)ccc12)NCCc1ccncc1 here?
range C

====

# system.tested: hERG (KCNH2) (Homo sapiens)
# assay.remarks: Inhibition of human ERG expressed in CHL cells assessed as tail current at 10 uM after 7 mins by patch clamp assay relative to control
# Type: cell-based
# experimental.parameters: CHL cells expressing human ERG
observation.type: inhibition at 7 min, 10 µM (%)
Quick reminder: number only, in %, skip the unit.

smiles.record	inhibition at 7 min, 10 µM (%)
CCN(CC)CCC/N=C(\C)Nc1c2ccc(Cl)cc2nc2ccc(OC)nc12	100
CCN(CC)CCCN(CCCN(CC)CC)/C(C)=N\c1ccnc2cc(Cl)ccc12	16.2
CCN(CC)CCCN/C(=N\c1ccnc2cc(Cl)ccc12)c1ccccc1	100

Endpoint output: inhibition at 7 min, 10 µM of CC(C)/C(=N/c1ccnc2cc(Cl)ccc12)NC1CCN(Cc2ccccc2)CC1 . Value?
51.8

Endpoint output: inhibition at 7 min, 10 µM of Clc1ccc2c(/N=C(\NCCCN3CCCCC3)c3ccccc3)ccnc2c1 . Value?
93

====

# system.tested: hERG (KCNH2) (Homo sapiens, UniProt Q12809)
# Sequence (Q12809 whole entry): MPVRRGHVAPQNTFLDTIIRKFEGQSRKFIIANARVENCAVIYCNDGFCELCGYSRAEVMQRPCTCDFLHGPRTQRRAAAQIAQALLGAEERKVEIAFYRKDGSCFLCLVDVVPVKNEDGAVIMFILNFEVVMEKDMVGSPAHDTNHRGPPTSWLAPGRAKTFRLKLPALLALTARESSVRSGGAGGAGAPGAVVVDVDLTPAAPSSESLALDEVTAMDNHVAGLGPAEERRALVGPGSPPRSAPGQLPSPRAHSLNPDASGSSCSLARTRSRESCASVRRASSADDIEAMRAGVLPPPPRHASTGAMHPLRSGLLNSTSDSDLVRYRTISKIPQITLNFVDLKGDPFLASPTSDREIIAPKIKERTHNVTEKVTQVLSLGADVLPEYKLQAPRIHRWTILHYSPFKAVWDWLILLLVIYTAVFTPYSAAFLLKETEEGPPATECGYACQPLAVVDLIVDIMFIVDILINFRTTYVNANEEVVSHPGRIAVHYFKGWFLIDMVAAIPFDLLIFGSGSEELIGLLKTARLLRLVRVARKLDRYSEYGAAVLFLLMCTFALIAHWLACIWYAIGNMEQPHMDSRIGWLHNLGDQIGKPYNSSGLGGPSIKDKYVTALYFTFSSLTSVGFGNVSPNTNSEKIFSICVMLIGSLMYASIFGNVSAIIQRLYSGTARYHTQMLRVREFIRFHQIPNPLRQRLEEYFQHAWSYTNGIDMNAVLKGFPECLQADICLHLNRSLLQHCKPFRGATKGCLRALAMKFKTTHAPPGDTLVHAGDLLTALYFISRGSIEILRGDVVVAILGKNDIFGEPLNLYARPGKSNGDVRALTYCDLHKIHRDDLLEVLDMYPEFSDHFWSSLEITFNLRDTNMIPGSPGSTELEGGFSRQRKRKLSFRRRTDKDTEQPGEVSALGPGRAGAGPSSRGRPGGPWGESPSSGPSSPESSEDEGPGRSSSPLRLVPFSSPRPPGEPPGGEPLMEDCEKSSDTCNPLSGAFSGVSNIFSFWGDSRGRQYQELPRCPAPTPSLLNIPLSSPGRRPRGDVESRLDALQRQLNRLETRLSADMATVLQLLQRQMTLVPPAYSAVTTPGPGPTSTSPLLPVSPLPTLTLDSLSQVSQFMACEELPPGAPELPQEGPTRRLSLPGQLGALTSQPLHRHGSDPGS
# assay.remarks: Inhibition of human ERG expressed in CHL cells assessed as tail current at 10 uM after 7 mins by patch clamp assay relative to control
# Assay type: cell-based
# experimental.parameters: CHL cells expressing human ERG
observation.type: inhibition at 7 min, 10 µM (%)
Quick reminder: number only, in %, skip the unit.

Some molecules with known inhibition at 7 min, 10 µM results, for comparison:
molecule	observation.type	result
CCN(CC)CCC/N=C(/Nc1c2ccc(Cl)cc2nc2ccc(OC)nc12)C(C)C	inhibition at 7 min, 10 µM	86.5
COc1ccc2nc3cc(Cl)ccc3c(N/C(=N/CCCN(C)C)c3ccccc3)c2n1	inhibition at 7 min, 10 µM	48.9
CCN(CC)CC(C)(C)C/N=C(/Nc1c2ccc(Cl)cc2nc2ccc(OC)nc12)c1ccccc1	inhibition at 7 min, 10 µM	10

Endpoint output: inhibition at 7 min, 10 µM of CCN(CC)CCCC(C)Nc1ccnc2cc(Cl)ccc12 (stereo not given) . Value?
71

Endpoint output: inhibition at 7 min, 10 µM of CC(C)/C(=N/c1ccnc2cc(Cl)ccc12)NCCCCN1CCCCC1 . Value?
33

====

# assay.remarks: Half life in human liver microsomes at 1 uM by LC/MS analysis
# Format: ADME
observation.type: half-life at 1 µM

Some compounds with known half-life at 1 µM results, for comparison:
smiles.record	result
COc1ccc2nc3cc(Cl)ccc3c(N/C(C)=N/CCCN(C)C)c2n1	> 1 h
CCN(CC)CCC/N=C(\c1ccccc1)N(CCCN(CC)CC)c1ccnc2cc(Cl)ccc12	> 1 h

Now look at this entry.
Endpoint output: half-life at 1 µM of CCN(CC)CCCN(CCCN(CC)CC)/C(C)=N\c1ccnc2cc(Cl)ccc12 . Value?
> 1 h

====

Each record here notes measured half-life at 1 µM.
# assay.remarks: Half life in mouse liver microsomes at 1 uM by LC/MS analysis
# Assay type: ADME
Quick reminder: number only, in min, skip the unit.

smiles.record	half-life at 1 µM [min]
COc1ccc2nc3cc(Cl)ccc3c(N/C(=N/CCCN3CCCCC3)C(C)C)c2n1	8
CCN(CC)CCC/N=C(\C)Nc1c2ccc(Cl)cc2nc2ccc(OC)nc12	29
COc1ccc2nc3cc(Cl)ccc3c(N/C(=N/CCCN(C)C)c3ccccc3)c2n1	44

Endpoint output: half-life at 1 µM of CCN(CC)CCN/C(C)=N\c1ccnc2cc(Cl)ccc12 . Value?
18

Endpoint output: half-life at 1 µM of CCN(CC)CCCN/C(=N\c1ccnc2cc(Cl)ccc12)c1ccccc1 . Value?
16

Endpoint output: half-life at 1 µM of CN(C)CCCN/C(=N\c1ccnc2cc(Cl)ccc12)c1ccccc1 . Value?
52

Endpoint output: half-life at 1 µM of CCN(CC)CCC/N=C(/Nc1c2ccc(Cl)cc2nc2ccc(OC)nc12)c1cccnc1 . Value?
29

Endpoint output: half-life at 1 µM of CN(C)CCCN/C(=N\c1ccnc2cc(Cl)ccc12)c1ccc(Cl)cc1 . Value?
35

Endpoint output: half-life at 1 µM of CC(C)/C(=N/c1ccnc2cc(Cl)ccc12)NCCCCN1CCCCC1 . Value?
31

Endpoint output: half-life at 1 µM of C/C(=N/c1ccnc2cc(Cl)ccc12)NCCCN1CCOCC1 . Value?
22

====

Each record here notes measured IC50.
# Test system: Plasmodium falciparum
# assay.remarks: Antimalarial activity against chloroquine-resistant Plasmodium falciparum C235 assessed as growth inhibition after 18 hrs by [3H]-hypoxanthine uptake assay
# Type: functional, organism-based
Quick reminder: number only, in nM, skip the unit.

smiles.record	observation.type	result
COc1ccc2nc3cc(Cl)ccc3c(N/C(C)=N/CCCN3CCCCC3)c2n1	IC50	13.1
CCN(CC)CCCN(CCCN(CC)CC)/C(=N\c1c2ccc(Cl)cc2nc2ccc(OC)nc12)C(C)C	IC50	3.2
COc1ccc2nc3cc(Cl)ccc3c(N/C(=N/CCCN3CCCCC3)c3ccccc3)c2n1	IC50	4.3

Endpoint output: IC50 of CCN(CC)CCC/N=C(/Nc1c2ccc(Cl)cc2nc2ccc(OC)nc12)c1cccnc1 . Value?
8.2

Endpoint output: IC50 of CCN(CC)CCCN/C(C)=N\c1ccnc2cc(Cl)ccc12 . Value?
133

Endpoint output: IC50 of C/C(=N/c1ccnc2cc(Cl)ccc12)NC1CCN(C(C)C)CC1 . Value?
134

Endpoint output: IC50 of CN(C)CCCN/C(=N\c1ccnc2cc(Cl)ccc12)c1ccc(Cl)cc1 . Value?
1.1

Endpoint output: IC50 of COc1ccc2nc3cc(Cl)ccc3c(N(CCCN(C)C)/C(C)=N/CCCN(C)C)c2n1 . Value?
51

Endpoint output: IC50 of CC(C)/C(=N/c1ccnc2cc(Cl)ccc12)NCCCN1CCCCC1 . Value?
56

Endpoint output: IC50 of CCN(CC)CCCCN/C(C)=N\c1ccnc2cc(Cl)ccc12 . Value?
26

Endpoint output: IC50 of Clc1ccc2c(N(CCCN3CCCCC3)/C(=N/CCCN3CCCCC3)c3ccccc3)ccnc2c1 . Value?
6.95

Endpoint output: IC50 of CCN(CC)CCC/N=C(\C)Nc1c2ccc(Cl)cc2nc2ccc(OC)nc12 . Value?
26.6

Endpoint output: IC50 of COc1ccc2nc3cc(Cl)ccc3c(N/C(C)=N/CCCN(C)C)c2n1 . Value?
51.3

Endpoint output: IC50 of C/C(=N/c1ccnc2cc(Cl)ccc12)NCCC1CCN(c2ccncc2)CC1 . Value?
64

Endpoint output: IC50 of CN(C)CCC/N=C(\c1ccccc1)N(CCCN(C)C)c1ccnc2cc(Cl)ccc12 . Value?
45.4

Endpoint output: IC50 of CCN(CC)CCC/N=C(\c1ccccc1)N(CCCN(CC)CC)c1ccnc2cc(Cl)ccc12 . Value?
33.7

Endpoint output: IC50 of CCN(CC)CC(C)(C)C/N=C(/Nc1c2ccc(Cl)cc2nc2ccc(OC)nc12)c1ccccc1 . Value?
29.7

Endpoint output: IC50 of CCN(CC)CCCCN/C(=N\c1ccnc2cc(Cl)ccc12)C(C)C . Value?
125

Endpoint output: IC50 of C/C(=N/c1ccnc2cc(Cl)ccc12)NC1CCN(C)CC1 . Value?
89

Endpoint output: IC50 of CCN(CC)CCCCCN/C(C)=N\c1ccnc2cc(Cl)ccc12 . Value?
175

Endpoint output: IC50 of CN(C)CCCN/C(=N\c1ccnc2cc(Cl)ccc12)c1ccccc1 . Value?
3.4

====

# assay.remarks: Half life in mouse liver microsomes at 1 uM by LC/MS analysis
# Format: ADME
Each record here notes measured half-life at 1 µM.
Quick reminder: number only, in min, skip the unit.

smiles.record	half-life at 1 µM (min)
COc1ccc2nc3cc(Cl)ccc3c(N/C(C)=N/CCCN3CCCCC3)c2n1	15
CC(C)/C(=N/c1ccnc2cc(Cl)ccc12)NCCCN1CCCCC1	43

Endpoint output: half-life at 1 µM of COc1ccc2nc3cc(Cl)ccc3c(N/C(=N/CCCN3CCCCC3)c3ccccc3)c2n1 . Value?
12
